Origin of measurements: patent US7910750B2

# Test system: BALB/c mouse spleen cells
# Test Protocol: Lymphocytotoxicity test (MTT)
# Format: cell-based
# Condition Summary: mouse spleen cells, 48 hours, read-out: Lymphocytotoxicity CC50
# Procedure: A. Lymphocytotoxicity Test 1. BALB/c mice were killed by cervical dislocation, and their spleens were removed aseptically. A single spleen cell suspension was prepared and cell debris and clumps were removed. 2. 80 μL cell suspension, 40 μL testing sample, 40 μL medium containing 10% FBS were added into 96 well plate; for the control group, 80 μL medium was added the total volume was 160 μL, and blank control group was set. 3. […]
// classify(record): look up CC50 in ranges range 1: < 8 µM; range 2: ≥ 8 µM and < 40 µM; range 3: ≥ 40 µM

Molecule	Category Label
CC(C(=O)O)c1ccc(OC2OC3OC4(C)CCC5C(C)CCC(C2C)C35OO4)cc1 (stereo not drawn) [compound 22]	range 3
CCOC(=O)C(C)Oc1cccc(OC2OC3OC4(C)CCC5C(C)CCC(C2C)C35OO4)c1 (stereo not drawn) [compound 28]	range 1
CC1CCC2C(C)C(Oc3cccc(OC(CC(=O)O)C(=O)O)c3)OC3OC4(C)CCC1C32OO4 (stereo not drawn) [compound 3]	range 3
CC(Oc1ccc(OC2OC3OC4(C)CCC5C(C)CCC(C2C)C35OO4)cc1)C(=O)O (stereo not drawn) [compound 25]	range 2
CCOC(=O)C(C)Oc1ccc(OC2OC3OC4(C)CCC5C(C)CCC(C2C)C35OO4)cc1 (stereo not drawn) [compound 24]	range 2
